test: physchem; format: physicochemical; settings: aqueous solution, pH 2
experimental.readout: remaining at 0.5 h, 70 µM (%)
Form entry: value (%) — number only.

Field request: remaining at 0.5 h, 70 µM | item: O=C1O[C@H]([C@H](CO)O[C@H]2O[C@H](CO)[C@@H](O)[C@H](O)[C@H]2O)C(O)=C1O
98

---

assay: physchem; format: physicochemical; settings: aqueous solution, pH 2
experimental.readout: remaining at 0.25 h, 70 µM (%)
Form entry: value (%) — number only.

Field request: remaining at 0.25 h, 70 µM | item: O=C1O[C@H]([C@H](CO)O[C@H]2O[C@H](CO)[C@@H](O)[C@H](O)[C@H]2O)C(O)=C1O
99
